Origin of values: PubChem BioAssay AID608

- target_or_system: Peptidyl-prolyl cis-trans isomerase FKBP1A (Homo sapiens)
- assay_text: small-molecule binding to FKBP12 – biophysical, NMR detection (AID 608)
- details: purified FKBP12
The source made the active and inactive calls. No rule for the calls is given here.
Possible outcomes: active, inactive

[[record]]
compound = "COC(=O)c1noc(-c2ccc(OC)cc2)n1"
qualitative_label = "inactive"

[[record]]
compound = "CC(=O)Oc1cc(OC(C)=O)c2c(c1)O[C@H](c1ccc(OC(C)=O)c(OC(C)=O)c1)[C@H](OC(C)=O)C2"
qualitative_label = "inactive"

[[record]]
compound = "CC(=O)Nc1ccc(C(=O)N2CCOCC2)cc1Cl"
qualitative_label = "inactive"

[[record]]
compound = "O=C1Nc2ccc(S(=O)(=O)NCCO)c3cccc1c23"
qualitative_label = "inactive"

[[record]]
compound = "NC(=O)C1CCN(c2ccc(Cl)nn2)CC1"
qualitative_label = "inactive"

[[record]]
compound = "CC(=O)Nc1ccc(-c2ccc3nncn3n2)cc1"
qualitative_label = "inactive"

[[record]]
compound = "OCn1nnn(-c2ccccc2)c1=S"
qualitative_label = "inactive"

[[record]]
compound = "COC(=O)c1c(OC)cc2c(c1C)Oc1c(Cl)c(OC(C)=O)c(Cl)c(C)c1C(=O)O2"
qualitative_label = "inactive"

[[record]]
compound = "O=C1C2CCCCC2C(=O)N1Cc1cccnc1 (configuration not stated)"
qualitative_label = "inactive"

[[record]]
compound = "COn1c(=O)c(C)[n+]([O-])c2ccccc21"
qualitative_label = "inactive"

[[record]]
compound = "O=C1CC(=O)N(c2ccccc2)c2ccccc21"
qualitative_label = "inactive"

[[record]]
compound = "O=C(O)c1cccc(N2C(=O)C3CC=CCC3C2=O)c1 (configuration not stated)"
qualitative_label = "inactive"

[[record]]
compound = "Cc1ccc(N2CCN(C(=O)c3ccccc3)CC2)c(C)c1"
qualitative_label = "inactive"

[[record]]
compound = "O=C(O)c1csc(-c2cccnc2)n1"
qualitative_label = "inactive"

[[record]]
compound = "Cn1cc(Cl)c(C(=O)NC2CCCC2)n1"
qualitative_label = "inactive"

[[record]]
compound = "CNC(=O)c1cc2cccc(OC)c2oc1=O"
qualitative_label = "inactive"

[[record]]
compound = "O=C(Nc1ccon1)c1ccccc1Cl"
qualitative_label = "inactive"

[[record]]
compound = "Nc1ccc(CN2CCOCC2)cc1"
qualitative_label = "inactive"

[[record]]
compound = "COC(=O)C1CCc2ccccc2N1 (configuration not stated)"
qualitative_label = "inactive"

[[record]]
compound = "Cc1nc2ccccc2c(=O)n1NC(=O)Nc1ccccc1"
qualitative_label = "inactive"

[[record]]
compound = "COc1c2c(cc3occ(-c4ccc5c(c4)OCO5)c(=O)c13)OC(C)(C)C=C2"
qualitative_label = "inactive"

[[record]]
compound = "Cn1c(CN2CC(c3ccccc3)CC2=O)n[nH]c1=S (configuration not stated)"
qualitative_label = "inactive"

[[record]]
compound = "CCOC(=O)c1c(SC)nc(=O)[nH]c1C"
qualitative_label = "inactive"

[[record]]
compound = "NC(=O)c1oc2ccccc2c1N"
qualitative_label = "inactive"

[[record]]
compound = "Cc1cc(O)cc(=O)n1CCCC(=O)O"
qualitative_label = "inactive"

[[record]]
compound = "COc1ccc2[nH]cc(CN(C)C)c2c1"
qualitative_label = "inactive"

[[record]]
compound = "Cc1ccccc1NC(=O)CSc1ccnc(=O)[nH]1"
qualitative_label = "inactive"

[[record]]
compound = "O=c1[nH]cc(NCc2ccccc2)c(=O)[nH]1"
qualitative_label = "inactive"

[[record]]
compound = "O=c1[nH]c(=O)n(-c2ccc(F)cc2)c(O)c1/C=C1/C=CC=N1"
qualitative_label = "inactive"

[[record]]
compound = "COC(=O)c1ccc(N2CCOCC2)nc1"
qualitative_label = "inactive"

[[record]]
compound = "COc1ccc(CN2CCNC(=O)C2CC(=O)O)cc1C (configuration not stated)"
qualitative_label = "inactive"

[[record]]
compound = "C[C@@H]1O[C@@H](O[C@H]2[C@@H](Oc3cc(O)c4c(c3)O[C@H](c3ccc(O)cc3)CC4=O)O[C@H](CO)[C@@H](O)[C@@H]2O)[C@H](O)[C@H](O)[C@H]1O"
qualitative_label = "inactive"

[[record]]
compound = "Cc1sc2nc(SCC(=O)N(C)C)[nH]c(=O)c2c1C"
qualitative_label = "inactive"

[[record]]
compound = "Cc1c(C(=O)Nc2cnccn2)oc2ccccc12"
qualitative_label = "inactive"

[[record]]
compound = "OCc1ccccc1O[C@@H]1O[C@H](CO)[C@@H](O)[C@H](O)[C@H]1O"
qualitative_label = "inactive"

[[record]]
compound = "O=C(Nc1cccnc1)c1c(F)c(F)c(F)c(F)c1F"
qualitative_label = "inactive"

[[record]]
compound = "Cc1cc(C)nc(/N=C(/N)N2CCOCC2)n1"
qualitative_label = "inactive"

[[record]]
compound = "c1ccc(-c2nnc3sc(-c4ccncc4)nn23)cc1"
qualitative_label = "inactive"

[[record]]
compound = "Cc1ccc(CCNc2ccccc2)c[n+]1[O-]"
qualitative_label = "inactive"

[[record]]
compound = "COc1ccc(C(C)=O)c(O)c1"
qualitative_label = "inactive"

[[record]]
compound = "CC(CCC(=O)O)[C@H]1CCC2C3CC[C@@H]4C[C@H](O)CC[C@]4(C)C3CC[C@@]21C (some centres not stated)"
qualitative_label = "inactive"

[[record]]
compound = "Nc1cccc(-c2cnco2)c1"
qualitative_label = "inactive"

[[record]]
compound = "c1ccc(-n2nnnc2Oc2cccc3cccnc23)cc1"
qualitative_label = "inactive"

[[record]]
compound = "O=S1(=O)C=C(Nc2ccccc2)CC1"
qualitative_label = "active"

[[record]]
compound = "O=C(c1ccc(Cl)s1)N1CCOCC1"
qualitative_label = "inactive"

[[record]]
compound = "CC(=O)N1CCN(c2ccc(O)cc2)CC1"
qualitative_label = "inactive"

[[record]]
compound = "N#CCSc1nc(-c2ccccc2)cs1"
qualitative_label = "inactive"

[[record]]
compound = "N#Cc1cnn(-c2ccc(Cl)cc2)c1N"
qualitative_label = "inactive"

[[record]]
compound = "O=C1c2ccc(F)cc2C(=O)N1CO"
qualitative_label = "inactive"

[[record]]
compound = "c1cc2n(c1)CCNC2c1ccncc1 (configuration not stated)"
qualitative_label = "inactive"

[[record]]
compound = "COC(=O)c1ccc(Cl)c(NC(C)=O)c1"
qualitative_label = "inactive"

[[record]]
compound = "Cc1ccc(/C=C/C(=O)O)cc1S(=O)(=O)NCCO"
qualitative_label = "inactive"

